- Target Entity: T1, recombinant cynomolgus monkey LIGHT, FLAG-tagged extracellular domain (cynomolgus (Macaca fascicularis), UniProt E9NVF7 59-240)
- T1 construct: extracellular domain; also called cynomolgus LIGHT; cyno LIGHT
- T1 sequence (E9NVF7 entry or part of it): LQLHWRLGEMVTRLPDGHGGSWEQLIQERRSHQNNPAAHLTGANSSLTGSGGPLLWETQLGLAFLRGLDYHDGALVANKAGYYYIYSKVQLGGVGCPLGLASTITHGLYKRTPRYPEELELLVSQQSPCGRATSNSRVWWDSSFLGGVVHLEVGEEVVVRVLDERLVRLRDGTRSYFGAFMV
- Assay Remarks: SPR ProteOn, mAb captured on anti-mouse IgG, LIGHT 256 nM, 25 C, apparent affinity
Quantity: Kd (nM)
Write the value in nM as a bare number.

What value of measured Kd is listed for 29C09 (purified from hybridoma supernatant) (antibody, V domains shown, Murine constant / human variable chimeric IgG, lambda, Protein G purified from hybridoma supernatant) VH: QEQLVQSGAEVKKPGASVKVSCKASGYTFTSYDINWVRQATGQGLEWMGWMNPNSGYTGYAQKFQGRVTMTRNTSIRTVYMELSSLRSEDTAVYYCARGGETFDIWGQGTMVTVSS VL: SYELTQPPSVSVSPGQTARITCSGDALPKKYAYWYQQKSGQAPVLVIYEDSKRPSGIPERFSGSSSGTMATLTISGAQVEDEADYYCYSTDSSDNHSVFGTGTKVTVL ? 2.28
